Ref: patent US10342804B2

- TEST_NAME: Fraction unbound in brain homogenates by dialysis
- Format: in vitro ADME
- STATED_CONDITIONS: rat, brain homogenate, pH 7.4, PCS rats, read-out: Fraction unbound (Fub) in brain homogenates
EXPERIMENTAL_ENDPOINT: fraction unbound

In [3]: df
Out[3]:
                                   molecule  reported
0  C#C[C@]1(O)CC[C@@]2(C)C(CC[C@@H]3[C@@H]2CC[C@]2(C)/C(=N\O)CC[C@@H]32)C1 (stereo partly shown)    0.0143
